EXPERIMENT_DESCRIPTION: chemical genetic growth profiling, strain panel (AID 1159580);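 note: tested at 20 µM; growth read once vehicle control cultures reached saturation at 30 °C; 1 = growth at the plate median or of vehicle wells; lower values mean less growth of the strain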
TEST_PARAMETERS: S. cerevisiae deletion strains, growth OD, locus YLL041C, strain sdh2, hits give low values
In all, about 5,500 compounds went through this assay and about 2,000 (36%) were called active. Not shown: some 18% with an inconclusive outcome. The list shows a part of the results.
Catalogue of normalized growth readings, one per entry.
Enter a number only.

Answered cases to consult:
MOLECULE	REPORTED_MEASUREMENT
COC(=O)CC1C(C)(C(=O)c2ccoc2)CC2OCC34C(CC(=O)OC)C5(C)CC36OC3(C)OC1(C(OC(C)=O)C6(OC(C)=O)C5OC(=O)C(C)C)C24O3 (centres undefined)	0.996
CC1=C(C(=O)O)N2C(=O)[C@@H](NC(=O)[C@@H](N)c3ccc(O)cc3)[C@H]2SC1	1.03
CC(=O)OCC1=C(C(=O)O)N2C(=O)[C@@H](NC(=O)CSc3ccncc3)[C@H]2SC1	1.02

Next, consider the following molecule.
Asked: Recorded normalized growth of COc1cc(O)ccc1C(C)=O , please.
Given back: 1.01

* * *

EXPERIMENT_DESCRIPTION: chemical genetic growth profiling, strain panel (AID 1159580);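 note: tested at 20 µM; growth read once vehicle control cultures reached saturation at 30 °C; 1 = growth at the plate median or of vehicle wells; lower values mean less growth of the strain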
TEST_PARAMETERS: S. cerevisiae deletion strains, growth OD, locus YMR277W, strain FCP1, hits give low values
About 2,000 (36%) of roughly 5,500 compounds were called active. Another 18% or so got no clear call; they are omitted. Some of the results follow.
Catalogue of normalized growth readings, one per entry.
Enter a number only.

Answered cases to consult:
COMPOUND	normalized growth
O=C(NCc1ccc2c(c1)OCO2)c1cc2ccccc2s1	0.829
CCOC(=O)C(NC(=O)c1cccc(Cl)c1)(Nc1nc2ccccc2s1)C(F)(F)F (stereo unspecified)	0.964
O=[N+]([O-])c1ccc(Sc2ccccc2)cc1O	0.917
COc1cc(C2CC(=S)Nc3ccccc3S2)cc(OC)c1OC (stereo unspecified)	0.999
Cc1oc(C(C)(C)C)cc1-c1cc(NC(=O)c2ccccc2)n[nH]1	0.95
NNC(=O)c1oc2nc(-c3ccccc3)cc(-c3ccccc3)c2c1N	0.983
O=S(=O)(Nc1cc(C(F)(F)F)cc(C(F)(F)F)c1)c1ccc(Cl)s1	0.931
Cn1ncc(-c2nc(-c3ccc(Cl)cc3)cs2)c1N	0.914
Cc1cc(N=Cc2cc(Cl)cc(Cl)c2O)no1	0.968
COc1cc(C2SCCS2)cc(Br)c1OC(=O)NC(=O)c1c(Cl)cccc1Cl	0.966

Asked: Recorded normalized growth of CCOC(=O)C(O)(c1ccc(NC(=O)c2ccc(Cl)c(Cl)c2)cc1)C(F)(F)F (stereo unspecified) , please.
Given back: 1

* * *

EXPERIMENT_DESCRIPTION: chemical genetic growth profiling, strain panel (AID 1159580);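 note: tested at 20 µM; growth read once vehicle control cultures reached saturation at 30 °C; 1 = growth at the plate median or of vehicle wells; lower values mean less growth of the strain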
TEST_PARAMETERS: S. cerevisiae deletion strains, growth OD, locus YFR028C, strain CDC14
About 2,000 (36%) of roughly 5,500 compounds were called active. Inconclusive results (about 18%) are left out. Cut-off read from the data, not from the text of the source: active = normalized growth mostly below about 0.91 (no sharp cut-off); inconclusive = no clear call, values can overlap the other calls; inactive = mostly above about 0.92. The list shows a part of the results.
Select the matching outcome among TRUE = active, FALSE = inactive

Please review the entries below; each comes with its answer.
COMPOUND	ANSWER_LABEL
Cc1cc(C)c2cc(C(=O)NCCNc3ccc(C(F)(F)F)cn3)[nH]c2c1	FALSE
Cc1cc(Sc2c([N+](=O)[O-])cc(C(F)(F)F)cc2[N+](=O)[O-])c(Cl)cc1Cl	FALSE
Cc1ccc2nc3c(nc2c1)-c1ccccc1C3=O	FALSE
COC(=S)Nc1cc(Cl)cc(Cl)c1	FALSE
CC(C)c1cccc(C(C)C)c1OC(=O)NC(=O)c1c(Cl)cccc1Cl	FALSE

Asked: Fill in: this test's call for CC(C)Sc1c(Cl)cccc1NC(=O)Nc1cccc(C(F)(F)F)c1 is ___
Given back: FALSE

Asked: Try COC(=O)c1cc([N+](=O)[O-])ccc1S(=O)(=O)Cc1ccc(Cl)cc1 next.
Given back: FALSE

Asked: Try CCOC(=O)C(O)(c1ccc(NC(=O)c2ccc(Cl)c(Cl)c2)cc1)C(F)(F)F (configuration not stated) next.
Given back: FALSE

Asked: Try S=C(NCc1cccs1)Nc1cc(Cl)cc(Cl)c1 next.
Given back: FALSE

Asked: Try FC(F)(F)c1ccncc1-c1nc(-c2ccc(Cl)cc2)cs1 next.
Given back: FALSE

Asked: Try COc1ccc(Oc2ccc([N+](=O)[O-])cc2C(=O)O/N=C(/N)c2ccc(C(F)(F)F)cc2)cc1 next.
Given back: FALSE

Asked: Try O=S(=O)(Nc1cc(C(F)(F)F)cc(C(F)(F)F)c1)c1ccc(Cl)s1 next.
Given back: FALSE

Asked: Try CC(C)Sc1c(Cl)cccc1NC(=O)Nc1ccccc1 next.
Given back: FALSE

Asked: Try O=[N+]([O-])c1ccc(NCc2ccc(Cl)c(Cl)c2)nc1 next.
Given back: FALSE

Asked: Try O=C(NCc1ccc2c(c1)OCO2)c1cc2ccccc2s1 next.
Given back: TRUE

Asked: Try COC(=O)c1cc(I)c(OC(C)=O)c(I)c1 next.
Given back: FALSE
